Below, Ki values reported for UniProtKB P00742 across several publications.
Flag rule - Ki less than 20 nM flags TRUE; the remaining entries get FALSE.

Compound: COc1ccc(-n2nc(C(F)(F)F)cc2C(=O)Nc2ccc(-c3ccccc3S(C)(=O)=O)cc2F)c(CN)c1
Category: TRUE
--
Compound: CCCCc1nc2cc(OC3CCN(C(C)=N)CC3)ccc2n1Cc1ccc2ccc(C(=N)N)cc2c1
Category: TRUE
--
Compound: N=C(N)c1ccc(OC[C@H]2COc3cc(N(Cc4ccccc4)C(=O)C(=O)O)ccc3O2)cc1
Category: FALSE
--
Compound: O=C1C(NS(=O)(=O)c2ccc3cc(Cl)ccc3c2)CCCN1c1ccc(N2CCCCC2)cc1F (stereo unspecified)
Category: TRUE
--
Compound: N=C(N)c1ccc2scc([C@H](Cc3ccccc3)C(=O)NC3CCCC[C@H]3C(=O)NCC(N)=O)c2c1 (stereo partly specified)
Category: FALSE
--
Compound: Cc1cc(C(=O)Nc2ccc(-c3ccccc3S(N)(=O)=O)cc2)n(-c2ccc(O)cc2)n1
Category: FALSE
--
Compound: CN(C)CC(=O)N(C)c1ccc2c(c1)N(C(=O)c1cc(C(N)=O)nn1-c1ccc3onc(N)c3c1)CC2
Category: FALSE
--
Compound: N=C(N)c1ccc(CNC(=O)[C@@H]2CCCN2C(=O)[C@@H](CCC(=O)N2CCNCC2)NS(=O)(=O)Cc2ccccc2)cc1
Category: FALSE
--
Compound: CCC(C)(C)C(NC(=O)[C@@H]1CCCN1C(=O)[C@H](Cc1ccc2ccccc2c1)NC(=O)OCc1ccccc1)B1O[C@@H]2CC3CC(C3(C)C)[C@]2(C)O1 (stereo partly specified)
Category: FALSE
--
Compound: N=C(N)c1cccc(C[C@H](NS(=O)(=O)c2cccc(NCCCN)c2)C(=O)N2CCC(CCN)CC2)c1
Category: FALSE
--
Compound: CN(C)CC(=O)N(C)c1ccc2c(c1)CCN2C(=O)c1cc(C(N)=O)nn1-c1ccc2onc(N)c2c1
Category: TRUE
--
Compound: CC(=N)N1CCC(Oc2ccc(NC/C=C/c3cccc(C(=N)N)c3)cc2[N+](=O)[O-])CC1
Category: TRUE
--
Compound: CC1(C)[C@@H]2C[C@H]3OB([C@H](CCCCN)NC(=O)Cn4nc(CC(=O)O)nc4Cc4ccccc4)O[C@@]3(C)[C@H]1C2
Category: FALSE
--
Compound: COC(=O)Nc1ccc2c(c1)NC(=O)CC/C=C/C[C@H](NC(=O)/C=C/c1cc(Cl)ccc1-n1cnnn1)c1nc-2c[nH]1
Category: FALSE
--
Compound: CCOC(=O)CN(C(=O)c1ccc2c(c1)OC(OCc1ccc(C(=N)N)cc1)C(=O)N2C)c1ccccc1 (stereo unspecified)
Category: FALSE
--
Compound: CNC(=O)CCCC1CCN(C(=O)[C@H](Cc2cccc(C(=N)N)c2)NS(=O)(=O)c2cccc(-c3cccc(Cl)c3Cl)c2)CC1
Category: FALSE

###

Below, Ki values reported for Coagulation factor X (Homo sapiens) across several publications.

Compound: COc1ccc(-n2nc(C(F)(F)F)c3c2C(=O)N(c2ccc(C4(CNC5CCCC5)CC4)cc2)CC3)cc1
Result Unit: nM
Limit Sign: =
Ki: 0.12
--
Compound: COc1ccc2ccc(S(=O)(=O)NC3CCN(Cc4cc(C(=N)N)ccc4O)C3=O)cc2c1 (stereo not drawn)
Result Unit: nM
Limit Sign: =
Ki: 3.16
--
Compound: CN(CCNC(=O)c1cc2c(O)cccc2n1Cc1cccc(C(=N)N)c1)c1cccc2ccccc12
Result Unit: nM
Limit Sign: =
Ki: 2470
--
Compound: CCN(CC)CC1(c2ccc(N3CCc4c(C(F)(F)F)nn(-c5ccc(OC)cc5)c4C3=O)cc2)CC1
Result Unit: nM
Limit Sign: <
Ki: 0.02
--
Compound: COc1cc(N2CCC(CNC(=O)c3ccc(OC)c(OCCc4ccc(Cl)cc4Cl)c3)CC2)nc(OC)n1
Result Unit: nM
Limit Sign: =
Ki: 10000
--
Compound: CN1CCN(Cc2ccccc2-c2ccc(N3CCc4c(C(F)(F)F)nn(-c5ccc6onc(N)c6c5)c4C3=O)cc2)CC1
Result Unit: nM
Limit Sign: =
Ki: 0.71
--
Compound: COC(=O)C1CCN(C(=O)[C@H](Cc2cccc(C(=N)N)c2)NS(=O)(=O)c2c(C)cc(C)cc2C)CC1
Result Unit: nM
Limit Sign: =
Ki: 83200
--
Compound: CCOC(=O)CN(Cc1ccc(F)cc1)c1ccc2c(c1)OC(C)(COc1ccc(C(=N)N)cc1)CN2C (stereo not drawn)
Result Unit: nM
Limit Sign: =
Ki: 1600
--
Compound: COc1ccc(-n2nc(C(=O)O)c3c2C(=O)N(c2ccc(-c4ccccc4CN4CC[C@@H](O)C4)cc2)CC3)cc1
Result Unit: nM
Limit Sign: =
Ki: 7.6
--
Compound: N=C(N)c1ccc2scc(C3(C(=O)Nc4ccc(-n5cnc6ccccc65)cc4)CC3)c2c1.O=C(O)C(F)(F)F
Result Unit: nM
Limit Sign: =
Ki: 22
--
Compound: COCCCC(NC(=O)[C@@H]1CCCN1C(=O)[C@@H](NC(=O)OCc1ccccc1)C(c1ccccc1)c1ccccc1)B1O[C@@H]2CC3CC(C3(C)C)[C@]2(C)O1 (stereo partly drawn)
Result Unit: nM
Limit Sign: =
Ki: 7200
--
Compound: COC(=O)C1C/C(=C/c2ccc(C(=N)N)cc2)C(=O)/C(=C/c2ccc(C(=N)N)cc2)C1 (stereo not drawn)
Result Unit: nM
Limit Sign: >
Ki: 500
--
Compound: Nc1ncc2c(n1)CCC(CNC(=O)[C@@H]1CCCN1C(=O)[C@@H](CC1CCCCC1)NS(=O)(=O)Cc1ccccc1)C2 (stereo partly drawn)
Result Unit: nM
Limit Sign: >
Ki: 75400
--
Compound: CCOC(=O)CCC(=O)N(Cc1ccccc1)c1ccc2c(c1)OC(Cc1ccc(C(=N)N)cc1)C(=O)N2C (stereo not drawn)
Result Unit: nM
Limit Sign: =
Ki: 1050
--
Compound: N=C(N)c1cccc(C[C@H](NS(=O)(=O)c2ccc3ccccc3c2)C(=O)N2CCC(CCN)CC2)c1
Result Unit: nM
Limit Sign: =
Ki: 76000
--
Compound: CC(C)N1CCC(NC(=O)c2cc3ccccc3n2CC(=O)Nc2ccc(F)cc2)CC1
Result Unit: nM
Limit Sign: =
Ki: 63
--
Compound: O=C(Nc1cccc(OCc2ccc3c(c2)OCO3)c1)C1CCN(c2ccncc2)CC1
Result Unit: nM
Limit Sign: =
Ki: 3720
--
Compound: N=C(N)c1ccc(NC(=O)NCC(=O)NCc2ccc(Cl)c(Cl)c2)cc1
Result Unit: nM
Limit Sign: =
Ki: 14500
--
Compound: C[C@@H](C(=O)N1CCOCC1)N1CC[C@H](NS(=O)(=O)c2nc3cc(Cl)ccc3s2)C1=O
Result Unit: nM
Limit Sign: =
Ki: 112
--
Compound: CC(=O)N[C@H](Cc1ccccc1)C(=O)N1CCC[C@H]1C(=O)N[C@@H](CCCn1ncnc1[N+](=O)[O-])B1O[C@@H]2CC3CC(C3(C)C)[C@]2(C)O1 (stereo partly drawn)
Result Unit: nM
Limit Sign: >
Ki: 6000
--
Compound: N=C(N)c1cccc(N2CCCCN(C3CCN(S(=O)(=O)Cc4ccccn4)CC3)C2=O)c1.O=C(O)C(F)(F)F.O=C(O)C(F)(F)F
Result Unit: nM
Limit Sign: =
Ki: 10
--
Compound: N=C(N)c1cccc(CN2CC[C@H](NS(=O)(=O)c3ccc4ccc(N)cc4c3)C2=O)c1
Result Unit: nM
Limit Sign: =
Ki: 120
--
Compound: COC(=O)CC1(C(=O)Nc2ccc(-c3ccccc3S(N)(=O)=O)cc2F)CC(c2cccc(C(=N)N)c2)=NO1 (stereo not drawn)
Result Unit: nM
Limit Sign: =
Ki: 4.2
--
Compound: COc1ccc2ccc(S(=O)(=O)N[C@H]3CCN(Cc4coc(C(=N)N)c4)C3=O)cc2c1
Result Unit: nM
Limit Sign: =
Ki: 180
--
Compound: CN(C)Cc1ccc2c(Cl)c(C(=O)Nc3ccc(Cl)cc3C(=O)Nc3ccc(Cl)cc3)sc2c1
Result Unit: nM
Limit Sign: =
Ki: 14
--
Compound: C[N+](C)(C)c1ccc(CNC(=O)c2cc3cc(S(C)(=O)=O)ccc3n2Cc2cccc(C(=N)N)c2)cc1
Result Unit: nM
Limit Sign: =
Ki: 226
--
Compound: N=C(N)c1cccc([C@@H]2CN(Cc3ccc(-c4ccccc4S(N)(=O)=O)cc3)C[C@H]2C(N)=O)c1
Result Unit: nM
Limit Sign: =
Ki: 150
--
Compound: Cc1cccc2c1cc(C(=O)NCc1nccc3ccccc13)n2Cc1cccc(C(=N)N)c1
Result Unit: nM
Limit Sign: =
Ki: 15
--
Compound: Cc1cc(Cl)c(C(=O)Nc2ccc(Cl)cc2C(=O)Nc2ccc(Cl)cc2)s1
Result Unit: nM
Limit Sign: =
Ki: 24
--
Compound: CN1CC(C)(COc2ccc(C(=N)N)cc2)Oc2cc(N(Cc3ccccc3)C(=O)C(=O)O)ccc21 (stereo not drawn)
Result Unit: nM
Limit Sign: =
Ki: 16600
--
Compound: N=C(N)c1ccc(CNC(=O)[C@@H]2Cc3ccc(cc3)NC(=O)CCN3CCN(CCC(=O)Nc4ccc(cc4)C[C@@H](NC(=O)CCCc4ccccc4)C(=O)N2)CC3)cc1
Result Unit: nM
Limit Sign: =
Ki: 11500
--
Compound: CCCCNC(=O)[C@H](Cc1cccc(C(=N)N)c1)NS(=O)(=O)c1ccc2ccccc2c1
Result Unit: nM
Limit Sign: =
Ki: 46800
--
Compound: COC(=O)CCCN(c1ccc2c(c1)nc(C)n2Cc1ccc2ccc(C(=N)N)cc2c1)C1CCN(C(C)=N)CC1
Result Unit: nM
Limit Sign: =
Ki: 30
